Measured reverse-splicing fitness of individual entries
B1: Azoarcus group I ribozyme (parent)
chain: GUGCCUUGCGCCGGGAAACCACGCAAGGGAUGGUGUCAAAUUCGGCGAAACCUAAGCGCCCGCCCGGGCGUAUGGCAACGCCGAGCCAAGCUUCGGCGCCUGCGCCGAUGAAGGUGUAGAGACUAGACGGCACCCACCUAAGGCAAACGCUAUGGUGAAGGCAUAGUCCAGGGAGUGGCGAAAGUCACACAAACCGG

# Variants of: B1
# Test: reverse-splicing fitness (ratio to wild type); higher = more active; in vitro selection; Mg2+ level not given

# Mutant Name, reverse-splicing fitness
data = [
    ("A111U A120U C150G C169A U176C", 0.0037),
    ("C82A A111C A120C A145C C150G C169G U176G", 0.00702),
    ("A111C A120U C150A C169U U176A", 0.00902),
    ("C82G A120U A145U C150A C169G U176C", 0.00192),
    ("C82G A120C C150A C169G", 0.00837),
    ("C82G A120G A145U C150G C169A U176C", 0.0121),
    ("C82G A120C A145G C150G C169G", 0.00813),
    ("C82G A111U A120G C169U U176A", 0.0197),
    ("C82G A111U A120C A145C C150G", 0.0104),
    ("C82G A145U C169A U176G", 0.00461),
    ("C82A A120G A145G C150A U176A", 0.0108),
]

Cited source: the RNAGym collection of RNA variant scans (doi:10.1093/molbev/msab373)
